Target: SMYD3 in complex with active site-specific tight-binding inhibitor EPZ031686 (Homo sapiens, UniProt Q9H7B4)
Construct: Full length recombinant SMYD3 was produced as previously reported; made in house; host or cells: E. coli BL21(DE3), in some cases Rosetta 2
Sequence (Q9H7B4 whole entry, one chain of several): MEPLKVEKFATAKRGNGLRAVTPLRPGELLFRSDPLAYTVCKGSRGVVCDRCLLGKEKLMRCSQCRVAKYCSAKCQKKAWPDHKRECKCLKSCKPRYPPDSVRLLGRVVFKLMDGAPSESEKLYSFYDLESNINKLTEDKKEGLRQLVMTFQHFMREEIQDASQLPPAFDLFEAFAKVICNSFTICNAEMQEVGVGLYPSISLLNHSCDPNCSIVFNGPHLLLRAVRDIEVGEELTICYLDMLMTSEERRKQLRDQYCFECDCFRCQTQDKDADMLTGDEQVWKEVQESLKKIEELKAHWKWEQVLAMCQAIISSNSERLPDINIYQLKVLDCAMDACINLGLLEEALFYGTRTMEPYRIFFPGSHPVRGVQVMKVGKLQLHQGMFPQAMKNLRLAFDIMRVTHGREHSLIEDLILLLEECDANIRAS
Assay: GCI biosensor kinetic screening, active site blocked SMYD3 surface
Details: initial kinetic screening, fragment 250 μM, 15 °C, SMYD3 blocked by EPZ031686, 1:1 model
Answer each item with its documented kd.
I'd appreciate it if you included the unit after the number.

Oc1ccc2ccncc2c1 [FL01657]    1.09 s⁻¹

Go through the list and state kd for each entry.
1. CC(C)c1nsc(N)n1 [FL01791]
2. COc1ccc(Br)cc1N [FL01938]
3. O=S(=O)(c1ccccc1)C1CCNC1 (stereo not shown) [FL08644]
4. CC(C)(C)OC(=O)NC1CCC(CC(=O)O)CC1 (stereo not shown) [FL08758]

OUT:
1.46 s⁻¹
1.61 s⁻¹
0.42 s⁻¹
2.01 s⁻¹

Go through the list and state kd for each entry.
1. O=C(O)c1cc(Br)c(O)c(Br)c1 [FL01775]
2. Nc1ccnc(-c2cccnc2)n1 [FL08779]
3. Cn1cnc(S(N)(=O)=O)c1 [FL06268]
4. O=C(O)C(=O)c1ccccc1 [FL08619]
5. COc1ccc(-n2ncc(C(=O)O)c2C)cc1 [FL01833]

OUT:
1: 1.37 s⁻¹; 2: 1.07 s⁻¹; 3: 0.83 s⁻¹; 4: 1.06 s⁻¹; 5: 1.46 s⁻¹

---

Answer each item with its documented kon at 250 µM.
Target: SMYD3 in complex with active site-specific tight-binding inhibitor EPZ031686 (Homo sapiens)
Construct: Full length recombinant SMYD3 was produced as previously reported; made in house; host or cells: E. coli BL21(DE3), in some cases Rosetta 2
Assay: GCI biosensor kinetic screening, active site blocked SMYD3 surface
Conditions: initial kinetic screening, fragment 250 μM, 15 °C, SMYD3 blocked by EPZ031686, 1:1 model; read-out: ka
One number for each entry, in M⁻¹ s⁻¹.

// solved cases for kon at 250 µM follow
CC(C)(C)OC(=O)NC1CCC(CC(=O)O)CC1 (stereo not shown) [FL08758]    33300
CC(C)c1nsc(N)n1 [FL01791]    39100
Oc1ccc2ccncc2c1 [FL01657]    19400
Cn1cnc(S(N)(=O)=O)c1 [FL06268]    34100
O=S(=O)(c1ccccc1)C1CCNC1 (stereo not shown) [FL08644]    75200

Go through the list and state kon at 250 µM for each entry.
1. O=C(O)C(=O)c1ccccc1 [FL08619]
2. COc1ccc(-n2ncc(C(=O)O)c2C)cc1 [FL01833]
3. O=C(O)c1cc(Br)c(O)c(Br)c1 [FL01775]
4. Nc1ccnc(-c2cccnc2)n1 [FL08779]
5. COc1ccc(Br)cc1N [FL01938]

OUT:
1. 27300
2. 9780
3. 24400
4. 41900
5. 13000

---

Molecular target: SMYD3 (apo, native) (Homo sapiens, UniProt Q9H7B4)
Construct: Full length recombinant SMYD3 was produced as previously reported; made in house; host or cells: E. coli BL21(DE3), in some cases Rosetta 2
Sequence (Q9H7B4 whole entry): as the sequence (Q9H7B4 whole entry, one chain of several) above
Experiment: GCI biosensor kinetic screening, apo SMYD3 surface
Format: binding
Settings: initial kinetic screening, fragment 250 μM, 15 °C, 1:1 model, read-out: ka
# label = bin(measured kon at 250 µM), where bins are bin 0: < 30000 M⁻¹ s⁻¹; bin 1: ≥ 30000 M⁻¹ s⁻¹ and < 60000 M⁻¹ s⁻¹; bin 2: ≥ 60000 M⁻¹ s⁻¹

Record excerpt, results attached:
Nc1ccc(S(N)(=O)=O)cc1    bin 2
COc1ccccc1C1OC(=O)CC1C(=O)O (stereo not shown)    bin 1
Nc1nnc(-c2cccnc2)s1    bin 1

Switching to the query record.
IN: Which bin should I file `Nc1nc2cccnc2cc1Br` under?
OUT: bin 0

The origin of these recorded values is paper PMC11187542.
